Target: Endoribonuclease toxin MazF (Escherichia coli K-12, UniProt P0AE70)
Sequence (P0AE70 whole entry): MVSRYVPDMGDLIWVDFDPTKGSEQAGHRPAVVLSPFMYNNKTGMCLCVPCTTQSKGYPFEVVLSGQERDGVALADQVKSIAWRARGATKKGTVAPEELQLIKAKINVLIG
Experiment: substrate-only fluorescence increase artefacts – biochemical, single-stranded RNase substrate, counter-screen for MazEF activator project, dose response (AID 588502)
Type: functional
Activity calls are given as the source filed them. Rule as the data show it: active = EC50 of 20 µM or less and inactive = more.
Just give me one of these, please: t = active, f = inactive

INSERT INTO assay_data (compound, assigned_label) VALUES
  ('C#CCN1C(=O)S/C(=C\c2cc3c(cc2OC)OCO3)C1=O', 't'),
  ('O=c1oc(/C=C/c2ccc([N+](=O)[O-])s2)nc2ccccc12', 'f'),
  ('Cc1oc(C)c2c(=O)ccc3c(c12)OC(N)=C(C#N)C3c1ccccc1 (configuration not stated)', 'f');

Recorded test outcome, item `O=C1NC(=O)C(=Cc2c[nH]c3ccc(OCc4ccccc4)cc23)C(=O)N1`
f

Recorded test outcome, item `CCC(=O)c1cn(CC(=O)Nc2ccccc2Cl)c2ccccc12`
f

Recorded test outcome, item `COCCN1C(=O)/C(=C/c2ccc(N3CCCC3)cc2)SC1=S`
f

Recorded test outcome, item `c1cc(Nc2cccc3nccnc23)c2nccnc2c1`
f

Origin of values: ChEMBL document CHEMBL1201862
